assay: The drug is tested on Z-021 corresponding to metagenome with ENA study accession number: PRJEB37062 and ENA sample accession number: ERS12561820 for biotransformation under anaerobic condition. The drug concentrations were measured over 9 timepoints collected between 0 and 24 hours of incubation by liquid-chromatography-coupled mass spectrometry (LC–MS); details: 2 µM; also: call rule not given here
Experimental endpoint: Bacterial Biotransformation

These solved cases illustrate the format of a correct answer.
Compound	Bacterial Biotransformation
CCCc1nc(C(C)(C)O)c(C(=O)OCc2oc(=O)oc2C)n1Cc1ccc(-c2ccccc2-c2nnn[nH]2)cc1 [OLMESARTAN MEDOXOMIL]	Compound metabolized
CCCCCOC(=O)Nc1nc(=O)n([C@@H]2O[C@H](C)[C@@H](O)[C@H]2O)cc1F [CAPECITABINE]	Compound metabolized
CN1CCN(C2=Nc3cc(Cl)ccc3Nc3ccccc32)CC1 [CLOZAPINE]	Compound NOT metabolized
CCC(=O)NCC[C@@H]1CCc2ccc3c(c21)CCO3 [RAMELTEON]	Compound metabolized
CC(C)N(CCC(C(N)=O)(c1ccccc1)c1ccccn1)C(C)C.O=P(O)(O)O (stereo not given) [DISOPYRAMIDE PHOSPHATE]	Compound NOT metabolized

Give its Bacterial Biotransformation value. Item: Nc1nc2ccc(OC(F)(F)F)cc2s1 [RILUZOLE]
Compound metabolized

# get_value(readout='Bacterial Biotransformation', item= COc1ccc2c(c1OC)C(=O)O[C@@H]2[C@H]1c2c(cc3c(c2OC)OCO3)CCN1C [NOSCAPINE] )
Compound NOT metabolized

For the compound COc1c(C)c2c(c(O)c1C/C=C(\C)CCC(=O)OCCN1CCOCC1)C(=O)OC2 [MYCOPHENOLATE MOFETIL] , what Bacterial Biotransformation is on record?
Compound metabolized

I have this compound here, Nc1ccc(/N=N/c2ccccc2)c(N)n1 [PHENAZOPYRIDINE] , and I need its recorded Bacterial Biotransformation.
Compound metabolized

Which Bacterial Biotransformation is listed for CC(C)NCC(O)COc1ccc(CCOCC2CC2)cc1 (stereo not given) [BETAXOLOL] ?
Compound NOT metabolized

----------
details: human gut metagenome, 24 h, 2 µM
Experimental endpoint: Bacterial Biotransformation

// known answers, use as guide
Molecule	Bacterial Biotransformation
Nc1ccc(/N=N/c2ccccc2)c(N)n1	Compound metabolized
CC(C)(C#N)c1cc(Cn2cncn2)cc(C(C)(C)C#N)c1	Compound NOT metabolized
COC(=O)Nc1nc2ccc(C(=O)c3ccccc3)cc2[nH]1	Compound metabolized
COc1ccc2[nH]c([S+]([O-])Cc3ncc(C)c(OC)c3C)nc2n1 (stereo not drawn)	Compound metabolized
C[C@@H]1C[C@H]2[C@@H]3CCC4=CC(=O)C=C[C@]4(C)[C@@]3(F)[C@@H](O)C[C@]2(C)[C@@]1(O)C(=O)CO	Compound NOT metabolized
CC(C(=O)O)c1ccc2c(c1)Cc1cccnc1O2 (stereo not drawn)	Compound metabolized
CN(C(=O)CN(CCO)CC(=O)N(C)C(C)(C)Cc1ccccc1)C(C)(C)Cc1ccccc1	Compound NOT metabolized

Now look at this one.
Requested read-out: Bacterial Biotransformation. Entry: `CN1CCc2c(c3ccccc3n2Cc2ccccc2)C1.CN1CCc2c(c3ccccc3n2Cc2ccccc2)C1.O=S(=O)(O)c1cccc2c(S(=O)(=O)O)cccc12`
Compound NOT metabolized

----------
assay: The drug is tested on WLS-027 corresponding to human gut metagenome with ENA study accession number: PRJEB37062 and ENA sample accession number: ERS12561744 for biotransformation under anaerobic condition. The drug concentrations were measured over 9 timepoints collected between 0 and 24 hours of incubation by liquid-chromatography-coupled mass spectrometry (LC–MS); settings: 2 µM
Experimental endpoint: Bacterial Biotransformation

Look over these answered cases.
Molecule	Bacterial Biotransformation
O=c1[nH]c2ccccc2n1CCCN1CCC(n2c(=O)[nH]c3cc(Cl)ccc32)CC1	Compound NOT metabolized
CC[C@H](C)C(=O)O[C@H]1C[C@@H](C)C=C2C=C[C@H](C)[C@H](CC[C@@H]3C[C@@H](O)CC(=O)O3)[C@H]21	Compound NOT metabolized
CC(=O)O[C@]1(C(C)=O)CC[C@H]2[C@@H]3C=C(Cl)C4=CC(=O)[C@@H]5C[C@@H]5[C@]4(C)[C@H]3CC[C@@]21C [CYPROTERONE ACETATE]	Compound metabolized
CCN(CC)CCOC(=O)C(Cc1cccc2ccccc12)CC1CCCO1.O=C(O)C(=O)O (configuration not stated) [NAFRONYL OXALATE]	Compound metabolized
CNCCC(Oc1ccc(C(F)(F)F)cc1)c1ccccc1 (configuration not stated)	Compound NOT metabolized
Cc1nc2n(c(=O)c1CCN1CCC(c3noc4cc(F)ccc34)CC1)CCCC2	Compound metabolized
c1ccc([C@H]2CN3CCSC3=N2)cc1	Compound metabolized
CCCC1O[C@@H]2C[C@H]3[C@@H]4CCC5=CC(=O)C=C[C@]5(C)[C@H]4[C@@H](O)C[C@]3(C)[C@]2(C(=O)CO)O1 (some centres not stated) [BUDESONIDE]	Compound metabolized
OC(CCN1CCCCC1)(c1ccccc1)C1CCCCC1 (configuration not stated)	Compound NOT metabolized
Br.CN(C)CCCC1(c2ccc(F)cc2)OCc2cc(C#N)ccc21 (configuration not stated) [CITALOPRAM HYDROBROMIDE]	Compound NOT metabolized

Proceed to the following item.
Reported Bacterial Biotransformation, molecule `CO[C@]12C[C@@H](COC(=O)c3cncc(Br)c3)CN(C)[C@@H]1Cc1cn(C)c3cccc2c13` : ____
Compound metabolized
